Consider the following compounds and their measured inhibition at 30 µM readings.
- Assayed target: testosterone 5α-reductase (Rattus norvegicus)
- Sequence (P24008 1-259): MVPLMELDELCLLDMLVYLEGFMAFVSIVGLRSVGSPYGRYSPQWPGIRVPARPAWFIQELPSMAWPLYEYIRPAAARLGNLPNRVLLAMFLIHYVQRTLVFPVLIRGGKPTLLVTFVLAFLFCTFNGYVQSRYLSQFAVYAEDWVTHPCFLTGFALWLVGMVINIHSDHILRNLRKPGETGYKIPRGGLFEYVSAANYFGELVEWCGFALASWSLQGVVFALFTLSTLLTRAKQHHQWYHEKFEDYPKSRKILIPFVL
- Method notes: Assay for testosterone 5α-reductase inhibitory activity (rat liver S9 fractions, HPLC of remaining testosterone)
- Format: biochemical
- Condition context: 30 μM; mean ± S.E.M. (N = 3–4); read-out: Inhibition (%)

Compound	inhibition at 30 µM, %
CC(C)CC(=O)c1c2c(c3oc(=O)cc(-c4ccccc4)c3c1O)CC(C(C)(C)O)O2 (stereo not shown)	62.8
CC[C@H](O)c1cc(=O)oc2c(C(=O)CC(C)C)c(O)c3c(c12)OC(C)(CCC=C(C)C)C=C3 (stereo partly shown)	53.9
CCCC(=O)c1c(O)c(CC=C(C)C)c2oc(=O)cc([C@@H](O)CC)c2c1O	51.1
CCC(C)C(=O)c1c(O)c(CC=C(C)C)c2oc(=O)cc([C@@H](O)CC)c2c1O (stereo partly shown)	68.6

----------
- Assayed target: testosterone 5α-reductase (Rattus norvegicus, UniProt P24008)
- Method notes: Assay for testosterone 5α-reductase inhibitory activity (rat liver S9 fractions, HPLC of remaining testosterone)
- Assay type: biochemical
- Condition context: 30 μM; mean ± S.E.M. (N = 3–4); read-out: Inhibition (%)

Molecule	inhibition at 30 µM / %
CC[C@H](OC(C)=O)c1cc(=O)oc2c(C(=O)CC(C)C)c(O)c(C/C=C(\C)CCC=C(C)C)c(O)c12 [Compound 5, Mammeasin B]	58.8
CCCC(=O)c1c(O)c(C/C=C(\C)CCC=C(C)C)c(O)c2c([C@H](CC)OC(C)=O)cc(=O)oc12 [Compound 4, Mammeasin A]	53.1
CCC(C)C(=O)c1c(O)c(C/C=C(\C)CCC=C(C)C)c(O)c2c([C@@H](O)CC)cc(=O)oc12 (stereo partly drawn) [Compound 13, surangin C]	114
CCCC(=O)c1c2c(c3oc(=O)cc(-c4ccccc4)c3c1O)CC(C(C)(C)O)O2 (stereo not drawn) [Compound 35, mammea A/AC cyclo F]	32.5
CC(C)=CCC/C(C)=C/Cc1c(O)c(C(=O)C(C)C)c2oc(=O)cc3c2c1OC(C)C3 (stereo not drawn) [Compound 6, Mammeasin C]	17.9
CC[C@H](O)c1cc(=O)oc2c(CC=C(C)C)c(O)c(C(=O)CC(C)C)c(O)c12 [Compound 11, Kayeassamin G]	61.3

----------
Consider the following compounds and their measured inhibition at 100 µM readings.
- Assayed target: testosterone 5α-reductase (Rattus norvegicus)
- Sequence (P24008 1-259): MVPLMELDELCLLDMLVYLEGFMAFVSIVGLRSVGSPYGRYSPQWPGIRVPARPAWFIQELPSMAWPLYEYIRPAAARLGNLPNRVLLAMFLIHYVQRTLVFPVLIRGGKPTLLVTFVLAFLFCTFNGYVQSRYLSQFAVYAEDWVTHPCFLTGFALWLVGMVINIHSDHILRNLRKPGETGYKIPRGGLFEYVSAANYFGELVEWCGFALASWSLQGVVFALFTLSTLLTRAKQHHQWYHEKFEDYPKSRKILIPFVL
- Method notes: Assay for testosterone 5α-reductase inhibitory activity (rat liver S9 fractions, HPLC of remaining testosterone)
- Assay type: biochemical
- Condition context: 100 μM; mean ± S.E.M. (N = 3–4); read-out: Inhibition (%)

Compound	inhibition at 100 µM, %
CC[C@H](O)c1cc(=O)oc2c(C(=O)CC(C)C)c(O)c3c(c12)OC(C)(CCC=C(C)C)C=C3 (stereo partly shown)	89.5
CCCC(=O)c1c(O)c(C/C=C(\C)CCC=C(C)C)c(O)c2c([C@H](CC)OC(C)=O)cc(=O)oc12	129
CCCC(=O)c1c(O)c(CC=C(C)C)c2oc(=O)cc([C@@H](O)CC)c2c1O	79.9
CC(C)CC(=O)c1c2c(c3oc(=O)cc(-c4ccccc4)c3c1O)C=CC(C)(C)O2	38.3
CCC(C)C(=O)c1c(O)c(C/C=C(\C)CCC=C(C)C)c(O)c2c([C@H](CC)OC(C)=O)cc(=O)oc12 (stereo partly shown)	38.5
CC[C@H](O)c1cc(=O)oc2c3c(c(C(=O)CC(C)C)c(O)c12)OC(C)(C)C=C3	37.1
CCCC(=O)c1c2c(c3oc(=O)cc(CCC)c3c1O)C=CC(C)(C)O2	27.3
CC(C)=CCc1c(O)c(C(=O)C(C)C)c(O)c2c(-c3ccccc3)cc(=O)oc12	30.3
CC(C)CC(=O)c1c2c(c3oc(=O)cc(-c4ccccc4)c3c1O)CC(C(C)(C)O)O2 (stereo not shown)	57
CCCc1cc(=O)oc2c3c(c(C(=O)C(C)CC)c(O)c12)OC(C)(C)C=C3 (stereo not shown)	40.7
CCC(C)C(=O)c1c(O)c2c(c3c([C@@H](O)CC)cc(=O)oc13)OC(C)(C)C=C2 (stereo partly shown)	31.9
CCCC(=O)c1c(O)c(C/C=C(\C)CCC=C(C)C)c2c3c(cc(=O)oc13)CC(C)O2 (stereo not shown)	16.4
CC(C)=CCC/C(C)=C/Cc1c(O)c(C(=O)C(C)C)c2oc(=O)cc3c2c1OC(C)C3 (stereo not shown)	52.9
CC[C@H](O)c1cc(=O)oc2c(CC=C(C)C)c(O)c(C(=O)CC(C)C)c(O)c12	62.3
CCCC(=O)c1c(O)c(CC=C(C)C)c2oc(=O)cc(-c3ccccc3)c2c1O	41.5
CCCC(=O)c1c2c(c3oc(=O)cc(-c4ccccc4)c3c1O)C=CC(C)(C)O2	32
CCC(C)C(=O)c1c2c(c3oc(=O)cc(-c4ccccc4)c3c1O)C=CC(C)(C)O2 (stereo not shown)	6.7
CCC(C)C(=O)c1c(O)c(CC=C(C)C)c2oc(=O)cc(-c3ccccc3)c2c1O (stereo not shown)	23.3
CCCC(=O)c1c(O)c(C/C=C(\C)CCC=C(C)C)c(O)c2c([C@@H](O)CC)cc(=O)oc12	20.2
CCC(C)C(=O)c1c(O)c(C/C=C(\C)CCC=C(C)C)c(O)c2c([C@@H](O)CC)cc(=O)oc12 (stereo partly shown)	124
CCCC(=O)c1c2c(c3oc(=O)cc(-c4ccccc4)c3c1O)CC(C(C)(C)O)O2 (stereo not shown)	54.8
CCCC(=O)c1c(O)c2c(c3c(C(CC)OC(C)=O)cc(=O)oc13)OC(C)(C)C=C2 (stereo not shown)	31.9

The reported numbers originate from paper PMC7099204.
